Test system: Plasmodium falciparum
Test: GSK_TCMDC: Inhibition of Plasmodium falciparum 3D7 in whole red blood cells, using parasite LDH activity as an index of growth. Test compounds present at 2uM
Type: functional
METRIC_NAME: Inhibition (%)
Write the number in % without appending the unit.

Below are worked cases with known answers.
COMPOUND: O=C(Nc1ccc(-c2nc3ccccc3[nH]2)cc1)C1CCN(Cc2ccccc2)CC1
VAL: 100
--
COMPOUND: O=C(O)C(F)(F)F.OCC1CCN(Cc2ccc(-c3cccc(-c4nc5cc(F)ccc5[nH]4)c3)cc2)CC1
VAL: 100
--
COMPOUND: N#Cc1ccc2c(c1)CN(C1CCC(NC(=O)/C=C/c3cc(C(F)(F)F)cc(C(F)(F)F)c3)CC1)CCC2 (stereo not drawn)
VAL: 95
--
COMPOUND: Oc1ccc(-c2cc(-c3ccc(O)cc3)nc(-c3ccccc3)n2)cc1
VAL: 96
--
COMPOUND: COc1ccc(/N=C(\N)Nc2ccccc2)nc1Cc1ccccc1
VAL: 81

Provide one value: measured Inhibition of COc1ccc2ncc(Cl)c(CCN3CCC(NCc4ccc5c(n4)NC(=O)CO5)CC3)c2c1.Cl 92

Identify the reported Inhibition for the following entry. Cl.FC(F)(F)c1ccc(COc2cc(Cl)ccc2Cn2ccnc2)cc1 95

Determine from records and report Inhibition for O=C(NC1CCN(CCN2CCC(c3ccccc3C(F)(F)F)CC2)CC1)c1ccc(-c2ccc(Cl)cc2)cc1 100

Return reported Inhibition. Input compound: Cc1cc(N(C)C)nc(Nc2ccc(NC(=O)c3ccc(Br)o3)cc2)n1 100

* * *

System: Plasmodium falciparum
Assay: GSK_TCMDC: Inhibition of Plasmodium falciparum Dd2 in whole red blood cells, using parasite LDH activity as an index of growth. Test compounds present at 2uM
Assay type: functional
METRIC_NAME: Inhibition (%)
Use % as the unit, but write only the number.

Answered examples (5):
COMPOUND: Fc1ccc2[nH]ccc(=NN=Cc3ccccc3Cl)c2c1
TEST_TARGET: Plasmodium falciparum
UNITS: %
Inhibition: 39

COMPOUND: COc1ccc2ncc(Cl)c(CCN3CCC(NCc4ccc5c(n4)NC(=O)CS5)CC3)c2c1.Cl
TEST_TARGET: Plasmodium falciparum
UNITS: %
Inhibition: 34

COMPOUND: Cc1nnsc1C(=O)Nc1cccc(-c2ccc(-c3nc4ccccc4[nH]3)cc2)c1
TEST_TARGET: Plasmodium falciparum
UNITS: %
Inhibition: 58

COMPOUND: COc1ccc(NC(=O)c2ccc3[nH]c(-c4ccc(Cl)cc4)cc3c2)cc1OCCN(C)C
TEST_TARGET: Plasmodium falciparum
UNITS: %
Inhibition: 78

COMPOUND: C=CCOC(=O)N1CCC(CNCc2ccc(-c3ccc(-c4nc5cc(C(F)(F)F)ccc5[nH]4)cc3)cc2)C1.O=C(O)C(F)(F)F (configuration not stated)
TEST_TARGET: Plasmodium falciparum
UNITS: %
Inhibition: 98

// fetch Inhibition given entry O=C(O)C(F)(F)F.c1ccc2c(c1)CN(CC1CC1)CC1(CCN(Cc3c[nH]c4cnccc34)CC1)O2 14

Return reported Inhibition. Input compound: Cc1cc(NCCC(=O)Nc2ccccc2)nc(NCC2CCCCC2)n1.O=C(O)C(F)(F)F 62

Identify Inhibition associated with the compound CC(C)COc1ccc(Cl)cc1Cc1nc(-c2nc3ccc(CN4CCN(C)CC4)cc3[nH]2)co1.Cl 57

Note down Inhibition recorded for CCOC(=O)c1ccc(N2CCCCC2)c(NC(=O)C(Cl)(Cl)Cl)c1 97

Return value of Inhibition for input Cc1ccc(CNc2ccc3ncc(-c4cccc(C(=O)NCCN(C)C)c4)n3n2)c(C)c1 , no commentary. 78

Tell us which Inhibition value is on record for Cn1cnc2nc(NCCc3ccccc3)nc(NCc3cccc4ccccc34)c21 98

Identify the reported Inhibition for the following entry. Nc1ncc(-c2ccc3nccc(-c4ccncc4)c3c2)cc1S(=O)(=O)N1CCCCC1 100

Please report the measured Inhibition for N#CC(NC(=O)C=Cc1ccccc1)c1ccccc1 (configuration not stated) 3

Hello, please tell me recorded Inhibition for this one: O=S(=O)(Nc1ccc(CCN2CCC(N3CCCCC3)CC2)cc1)c1ccccc1C(F)(F)F 8

Please report Inhibition for the following compound: FC(F)(F)Oc1ccc(-c2cnc3ccc(NCc4ccncc4)nn23)cc1 54

Identify measured Inhibition associated with CN1CCCC1CCOc1ccc2c(c1)N(C(=O)Nc1cc(Br)cc(C(F)(F)F)c1)CC2.O=C(O)C(F)(F)F (configuration not stated) 97

Tell me measured Inhibition for Cc1cccc2nc(-c3ccc(-c4ccc(CN5CCCCC5CO)cc4)cc3)[nH]c12.O=C(O)C(F)(F)F (configuration not stated) please. 76

Provide measured Inhibition value, entry: O=C(NC1CCC(N2CCC(c3ccccc3C(F)(F)F)CC2)CC1)c1cc2ccccc2[nH]1 (configuration not stated) 98

Give the reported value of Inhibition for this record: NC1=NC2(CCCCC2)N(OCCCCCCN2C(=O)c3ccccc3C2=O)C(N)=N1 16

Recall and state the measured Inhibition for CSC1=NC(=Nc2ccccc2C)C2(CCC(C(C)(C)C)CC2)N1c1ccccc1Cl.I (configuration not stated) . 89

Fill in reported Inhibition for this entry: CCCCN(CCCC)CCCCNc1c2ccc(Cl)cc2nc2ccc(OC)cc12.Cl 96

Complete the entry with Inhibition for CC(C)Oc1cccc(-c2ccc(C(=O)NCC3CCCN(Cc4cccc(C(F)(F)F)c4)C3)s2)c1.O=C(O)C(F)(F)F (configuration not stated) 28

Annotate the compound Cc1cc(F)ccc1-c1nc(NCCCNCCc2ccccc2)nc2c1ccc(=O)n2-c1c(F)cccc1F.O=C(O)C(F)(F)F with its measured Inhibition. 100

The reported numbers originate from ChEMBL document CHEMBL1157539.
